The measurements presented in this section are drawn from the supplement of paper PMC8728848.

measured.on: GlcNAc(b1-2)[GlcNAc(b1-4)]Man(a1-3)[GlcNAc(b1-4)][GlcNAc(b1-2)[GlcNAc(b1-6)]Man(a1-6)]Man(b1-4)GlcNAc(b1-4)GlcNAc
measurement.notes: glycan array binding signal (z-score within array); higher = stronger binding
condition.info: glycan notation: IUPAC condensed, linker removed
This is one part of a sample in which the strongest signals are shown more often than they occur.
recorded.metric: glycan array binding signal (z-score)
# print the numeric value only

1) SP8524D-bot-399-27-399 (Bacteroides ovatus) (protein) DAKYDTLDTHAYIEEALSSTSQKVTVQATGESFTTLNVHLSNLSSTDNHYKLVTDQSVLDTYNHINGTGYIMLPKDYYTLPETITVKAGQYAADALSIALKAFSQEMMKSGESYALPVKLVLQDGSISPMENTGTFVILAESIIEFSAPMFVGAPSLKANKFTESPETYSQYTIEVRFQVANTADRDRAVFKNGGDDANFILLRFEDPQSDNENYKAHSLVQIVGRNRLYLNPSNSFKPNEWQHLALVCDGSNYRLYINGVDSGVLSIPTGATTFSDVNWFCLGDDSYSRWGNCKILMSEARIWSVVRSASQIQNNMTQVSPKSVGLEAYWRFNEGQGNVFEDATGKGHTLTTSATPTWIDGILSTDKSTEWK = 12.1

query: Bench note: what glycan array binding signal (z-score) did FGF1 (Homo sapiens), P05230 (protein) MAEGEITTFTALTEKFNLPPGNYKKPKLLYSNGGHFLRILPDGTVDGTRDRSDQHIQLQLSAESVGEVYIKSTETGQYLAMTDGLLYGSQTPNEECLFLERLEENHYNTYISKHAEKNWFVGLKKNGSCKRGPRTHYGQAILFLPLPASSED show?
result: -0.751

query: GNL (Galanthus nivalis) (protein) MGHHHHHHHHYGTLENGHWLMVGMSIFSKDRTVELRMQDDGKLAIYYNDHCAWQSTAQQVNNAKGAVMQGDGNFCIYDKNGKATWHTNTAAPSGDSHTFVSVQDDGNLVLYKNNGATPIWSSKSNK ?
result: -0.284

query: OS9 (Arabidopsis thaliana) (protein) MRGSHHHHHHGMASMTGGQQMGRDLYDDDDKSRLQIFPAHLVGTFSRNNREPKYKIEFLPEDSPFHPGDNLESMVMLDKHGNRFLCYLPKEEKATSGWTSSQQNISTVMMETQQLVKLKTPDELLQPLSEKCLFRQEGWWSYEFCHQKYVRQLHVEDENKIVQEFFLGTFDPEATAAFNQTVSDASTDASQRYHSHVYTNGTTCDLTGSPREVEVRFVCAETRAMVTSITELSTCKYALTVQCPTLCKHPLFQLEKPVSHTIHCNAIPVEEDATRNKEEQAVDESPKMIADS ?
result: 0.258

query: Microvirin-2 (Microcystis aeruginosa) (protein) MPNFSHTCSSINYDPDSTILSAECQARDGEWLPTELRLSDHIGNIDGELQFGDQNFQETCQDCHLEFGDGEQSVWLVCTCQTMDGEWKSTQILLDSQIDNNDSQLEIGGSMPNFSHTCSSINYDPDSTILSAECQARDGEWLPTELRLSDHIGNIDGELQFGDQNFQETCQDCHLEFGDGEQSVWLVCTCQTMDGEWKSTQILLDSQIDNNDSQLEIG ?
result: -0.141

query: LlpA (Arthrobacter sp) (protein) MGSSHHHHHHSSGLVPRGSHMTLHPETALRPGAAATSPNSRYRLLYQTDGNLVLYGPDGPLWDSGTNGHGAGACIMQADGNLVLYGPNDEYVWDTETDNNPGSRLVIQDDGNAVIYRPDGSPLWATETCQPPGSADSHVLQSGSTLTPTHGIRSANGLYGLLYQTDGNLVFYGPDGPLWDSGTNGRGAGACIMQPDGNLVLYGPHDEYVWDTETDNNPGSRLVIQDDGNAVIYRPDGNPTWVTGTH ?
result: -0.159

query: DrGal3 (Danio rerio) (protein) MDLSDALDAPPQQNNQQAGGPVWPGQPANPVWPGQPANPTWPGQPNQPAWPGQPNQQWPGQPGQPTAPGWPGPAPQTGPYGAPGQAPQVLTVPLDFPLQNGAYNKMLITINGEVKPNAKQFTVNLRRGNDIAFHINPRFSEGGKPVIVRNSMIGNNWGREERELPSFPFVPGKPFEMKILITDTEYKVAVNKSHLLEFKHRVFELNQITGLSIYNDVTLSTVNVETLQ ?
result: -0.297

query: Gal 4 (Mus musculus), P56470 (protein) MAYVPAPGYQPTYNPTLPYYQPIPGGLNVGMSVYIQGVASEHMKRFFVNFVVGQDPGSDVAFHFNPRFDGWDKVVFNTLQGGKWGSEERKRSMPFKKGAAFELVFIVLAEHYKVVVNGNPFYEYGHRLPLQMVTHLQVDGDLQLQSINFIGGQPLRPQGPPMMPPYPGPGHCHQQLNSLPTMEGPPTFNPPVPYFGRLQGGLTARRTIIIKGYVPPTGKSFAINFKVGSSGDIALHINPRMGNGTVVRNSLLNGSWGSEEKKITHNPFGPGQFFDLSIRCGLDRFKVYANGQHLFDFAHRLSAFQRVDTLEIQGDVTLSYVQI ?
result: -0.23

query: OGAA (protein) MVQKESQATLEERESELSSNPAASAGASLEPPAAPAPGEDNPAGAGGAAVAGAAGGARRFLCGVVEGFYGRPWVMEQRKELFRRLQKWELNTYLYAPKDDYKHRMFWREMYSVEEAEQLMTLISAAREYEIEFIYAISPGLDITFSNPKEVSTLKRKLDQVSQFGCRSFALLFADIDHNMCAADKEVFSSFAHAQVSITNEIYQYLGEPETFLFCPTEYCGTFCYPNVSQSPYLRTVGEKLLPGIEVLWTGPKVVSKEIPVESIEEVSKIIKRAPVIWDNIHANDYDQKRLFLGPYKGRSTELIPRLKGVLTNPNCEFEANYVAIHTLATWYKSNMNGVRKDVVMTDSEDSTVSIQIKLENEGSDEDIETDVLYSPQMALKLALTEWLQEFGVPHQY ?
result: -0.071
